tested on: SNB-75 CNS; assay: NCI-60 one-dose screen, 48 h; conditions: 10 µM unless noted
Compounds without any hit were thinned out: in the full panel of roughly 83,000, 20% have a hit. Activity calls are given as the source filed them. Rule for the calls: active = growth percent below 10; inactive = the rest.
One label from this list, please: active, inactive

Study these solved cases before continuing.
>>> discrete_label("C#C[C@]1(O)CC[C@H]2[C@@H]3CC=C4c5nc(Nc6ccccn6)sc5CC[C@]4(C)[C@H]3CC[C@@]21C")
"active"
>>> discrete_label("COc1cc(NCc2ccccc2O)c2ncccc2c1")
"inactive"
>>> discrete_label("O=C(Nc1cc(-c2cccnc2)nc(NCCCN2CCOCC2)n1)c1cc(Br)cc(C(F)(F)F)c1")
"inactive"
>>> discrete_label("CCCCC(CC)COC(=O)C[N+](C)(C)CCOC(c1ccccc1)c1ccccc1 (stereo not drawn)")
"inactive"
>>> discrete_label("COc1ccc(C(=O)CCC(=O)O)cc1")
"inactive"
>>> discrete_label("CCCC[C@@H](C=O)NC(=O)[C@H](CC(C)C)NC(=O)[C@H](CC(C)C)NC(=O)OCc1ccccc1")
"active"
>>> discrete_label("O=C(O)c1cc([N+](=O)[O-])ccc1Br")
"inactive"
>>> discrete_label("Cc1ccc(S(=O)(=O)n2cc(C(=O)C(=O)N3CCCCC3)c3ccccc32)cc1")
"inactive"

Enquiry: Identify the outcome logged in this assay for the molecule shown: CC1(C)OC2[C@@H](CNC(=O)NC(=O)NC(=O)CI)O[C@@H](n3cnc4c(NC(=O)Nc5ccccc5)ncnc43)[C@H]2O1 (stereo partly drawn)
Return: inactive

Enquiry: Identify the outcome logged in this assay for the molecule shown: Nc1nc(SCc2cccc([N+](=O)[O-])c2)c2[nH]cnc2n1
Return: inactive

Enquiry: Identify the outcome logged in this assay for the molecule shown: O=C1CC(c2ccccc2)Cc2nc3ccc(Br)cc3cc21 (stereo not drawn)
Return: inactive

Enquiry: Identify the outcome logged in this assay for the molecule shown: COc1ccc(/C=C(/C2=NCCN2)n2ccc3ccccc32)cc1
Return: inactive

Enquiry: Identify the outcome logged in this assay for the molecule shown: CC(=O)O.CC(=O)O.O.[Fe]
Return: inactive

Enquiry: Identify the outcome logged in this assay for the molecule shown: CC1(C)[C@@H](NOCCCN)CC[C@]2(C)[C@H]3C(=O)C=C4[C@@H]5C[C@](C)(C(=O)O)CC[C@]5(C)CC[C@@]4(C)[C@]3(C)CC[C@@H]12
Return: active

Enquiry: Identify the outcome logged in this assay for the molecule shown: O=c1cc(-c2ccccc2)oc2c(O)c(O)ccc12
Return: inactive

Enquiry: Identify the outcome logged in this assay for the molecule shown: CCCC(NC(=O)OCc1ccccc1)C(=O)O (stereo not drawn)
Return: inactive
